Target: Serine/threonine-protein kinase B-raf (Homo sapiens, UniProt P15056, V600E)
Sequence (P15056 2-766 V600E limits assumed): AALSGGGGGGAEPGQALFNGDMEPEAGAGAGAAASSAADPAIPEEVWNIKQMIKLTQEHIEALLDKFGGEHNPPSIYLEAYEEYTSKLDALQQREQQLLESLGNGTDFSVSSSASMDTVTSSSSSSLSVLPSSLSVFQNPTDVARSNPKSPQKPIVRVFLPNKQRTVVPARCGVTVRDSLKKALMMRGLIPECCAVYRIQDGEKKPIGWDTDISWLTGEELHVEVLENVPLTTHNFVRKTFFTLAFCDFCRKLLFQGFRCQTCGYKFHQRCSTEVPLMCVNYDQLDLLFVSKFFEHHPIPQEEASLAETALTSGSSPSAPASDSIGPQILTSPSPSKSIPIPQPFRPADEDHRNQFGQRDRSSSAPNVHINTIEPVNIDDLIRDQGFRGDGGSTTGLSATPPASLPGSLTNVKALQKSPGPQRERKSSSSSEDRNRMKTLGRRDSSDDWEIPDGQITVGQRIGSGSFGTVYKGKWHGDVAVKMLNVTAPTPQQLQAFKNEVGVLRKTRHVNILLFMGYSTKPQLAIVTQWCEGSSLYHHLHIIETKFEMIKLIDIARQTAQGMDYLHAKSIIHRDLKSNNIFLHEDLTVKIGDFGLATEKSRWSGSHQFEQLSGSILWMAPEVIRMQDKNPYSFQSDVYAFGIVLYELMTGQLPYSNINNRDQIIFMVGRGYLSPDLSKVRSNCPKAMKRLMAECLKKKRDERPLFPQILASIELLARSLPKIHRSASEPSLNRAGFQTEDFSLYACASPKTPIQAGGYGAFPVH
Assay: Inhibition of full length B-Raf V600E mutant
property: pIC50
Answers are plain numbers, as −log10 of the molar value.

Known results for compounds:
**Query** // fetch Serine/threonine-protein kinase B-raf (Homo sapiens, UniProt P15056, V600E) pIC50 for CCCS(=O)(=O)Nc1ccc(Cl)c(C(=O)Nc2cnc3[nH]ccc3c2)c1Cl
**Result** 8.08

**Query** Again, but for CCCS(=O)(=O)Nc1ccc(F)c(C(=O)Nc2cnc3[nH]nc(OCC4COC4)c3c2)c1F
**Result** 8.38

**Query** How about this compound: CCCS(=O)(=O)Nc1ccc(F)c(C(=O)Nc2cnc3[nH]nc(OCC(F)(F)F)c3c2)c1F
**Result** 8.28

**Query** Would you mind doing CCN(C)S(=O)(=O)Nc1ccc(F)c(C(=O)Nc2cnc3[nH]ccc3c2)c1F as well?
**Result** 6.40

Provide pIC50 for all items below, preserving their order.
1. O=C(Nc1cnc2[nH]ccc2c1)c1c(F)ccc(NS(=O)(=O)CCC(F)(F)F)c1F
2. CCCS(=O)(=O)Nc1cc(F)c(F)c(C(=O)Nc2cnc3[nH]nc(OC)c3c2)c1F

**Result**
[7.48, 8.64]

Give pIC50 for each of the items listed below.
1. COc1n[nH]c2ncc(NC(=O)c3c(F)ccc(NS(=O)(=O)c4cccs4)c3F)cc12
2. CCCS(=O)(=O)Nc1ccc(C)c(C(=O)Nc2cnc3[nH]ccc3c2)c1F
3. CCCS(=O)(=O)Nc1ccc(Cl)c(C(=O)Nc2cnc3[nH]nc(OC)c3c2)c1
4. COc1n[nH]c2ncc(NC(=O)c3c(F)ccc(NS(=O)(=O)c4cccnc4)c3F)cc12
5. COc1n[nH]c2ncc(NC(=O)c3c(F)ccc(NS(=O)(=O)CC4CC4)c3F)cc12
6. CCCS(=O)(=O)Nc1cccc(C(=O)Nc2cnc3[nH]ccc3c2)c1F

**Result**
1: 9.70; 2: 6.77; 3: 7.21; 4: 9.30; 5: 7.77; 6: 7.06

List pIC50 for every entry below, keeping the order given.
1. O=C(Nc1cnc2[nH]ccc2c1)c1c(F)ccc(NS(=O)(=O)CC(F)(F)F)c1F
2. CCCS(=O)(=O)Nc1ccc(Cl)c(C(=O)Nc2cnc3[nH]ccc3c2)c1F
3. COc1n[nH]c2ncc(NC(=O)c3c(F)ccc(NS(=O)(=O)N4CCCC4)c3F)cc12
4. CCCS(=O)(=O)Nc1ccc(F)c(C(=O)Nc2cnc3[nH]ccc3c2)c1C

**Result**
7.42
7.77
8.07
6.17

For every item below, please supply its pIC50.
1. COc1n[nH]c2ncc(NC(=O)c3c(F)ccc(NS(=O)(=O)CCCF)c3F)cc12
2. CCCS(=O)(=O)Nc1ccc(F)c(C(=O)Nc2cnc3[nH]nc(C(F)(F)F)c3c2)c1F
3. CCCS(=O)(=O)Nc1ccc(Cl)c(C(=O)Nc2cnc3[nH]ccc3c2)c1

**Result**
[8.89, 8.24, 7.06]

###

Target: Serine/threonine-protein kinase B-raf (Homo sapiens, UniProt P15056, V600E)
Experiment: Inhibition of full length B-Raf V600E mutant
property: pIC50
Answers are plain numbers, as −log10 of the molar value.

In the examples that follow, each entry is paired with its recorded pIC50.
**Query** Form: Entry = COc1n[nH]c2ncc(NC(=O)c3c(F)ccc(NS(=O)(=O)c4cccc(F)c4)c3F)cc12 | System = Serine/threonine-protein kinase B-raf (Homo sapiens, UniProt P15056, V600E) | pIC50 = ____
**Result** 9.15

**Query** Item: CCCS(=O)(=O)Nc1ccc(F)c(C(=O)Nc2cnc3[nH]cc(CC)c3c2)c1F
**Result** 7.72

Next item in the queue.
**Query** Kindly state the measured pIC50 obtained for COc1n[nH]c2ncc(NC(=O)c3c(F)ccc(NS(=O)(=O)c4ccco4)c3F)cc12 with Serine/threonine-protein kinase B-raf (Homo sapiens, UniProt P15056, V600E).
**Result** 9.15

###

Biological target: Serine/threonine-protein kinase B-raf (Homo sapiens, UniProt P15056, V600E)
Assay: Inhibition of full length B-Raf V600E mutant
pIC50: −log10 of the molar value.
Where pIC50 equals or exceeds 8, the correct label is YES; where it does not, the label is NO.

**Query** Quick check, pIC50 >= 8? CCCS(=O)(=O)Nc1cc(F)c(F)c(C(=O)Nc2cnc3[nH]ccc3c2)c1F
**Result** NO

**Query** Note, next up: CCCCS(=O)(=O)Nc1ccc(F)c(C(=O)Nc2cnc3[nH]ccc3c2)c1F
**Result** NO

**Query** Try CCCS(=O)(=O)Nc1ccc(Cl)c(C(=O)Nc2cnc3[nH]nc(OC)c3c2)c1Cl next.
**Result** YES

**Query** Now this one: COc1n[nH]c2ncc(NC(=O)c3c(F)ccc(NS(=O)(=O)NC(C)C)c3F)cc12
**Result** NO

**Query** And then COc1n[nH]c2ncc(NC(=O)c3c(F)ccc(NS(=O)(=O)c4ccccc4F)c3F)cc12 , what is it?
**Result** YES

**Query** Then what about the compound CCCS(=O)(=O)Nc1ccc(F)c(C(=O)Nc2cnc3[nH]nc(OCC)c3c2)c1F ?
**Result** YES

New cases:
**Query** Tell me whether pIC50 is at least 8 here: COc1n[nH]c2ncc(NC(=O)c3c(F)ccc(NS(=O)(=O)CC(C)C)c3F)cc12
**Result** YES

**Query** Try this compound too: CC(C)CS(=O)(=O)Nc1ccc(F)c(C(=O)Nc2cnc3[nH]ccc3c2)c1F
**Result** NO

**Query** And then COc1n[nH]c2ncc(NC(=O)c3c(F)ccc(NS(=O)(=O)c4cc(F)ccc4F)c3F)cc12 , what is it?
**Result** YES

###

Target: Serine/threonine-protein kinase B-raf (Homo sapiens, UniProt P15056, V600E)
Assay: Inhibition of full length B-Raf V600E mutant
Please use 1 for IC50 under 20 nM and -1 for everything else, ties included.

These recorded examples may help you get a feel for the data.
**Query** Below 20 nM on IC50? Entry CCCS(=O)(=O)Nc1ccc(F)c(C(=O)Nc2cnc3[nH]cc(C(F)(F)F)c3c2)c1F
**Result** 1

**Query** Ok, now CCCS(=O)(=O)Nc1ccc(F)c(C(=O)Nc2cnc3[nH]cc(C)c3c2)c1F
**Result** 1

**Query** And the next one, CCCS(=O)(=O)Nc1ccc(F)c(C(=O)Nc2cnc3[nH]nc(O[C@@H]4CCOC4)c3c2)c1F ?
**Result** 1

**Query** And the next one, CCCS(=O)(=O)Nc1ccc(F)c(C(=O)Nc2cnc3[nH]nc(CC)c3c2)c1F ?
**Result** 1

**Query** // same read-out, input: COc1n[nH]c2ncc(NC(=O)c3c(F)ccc(NS(=O)(=O)NCC(F)F)c3F)cc12
**Result** 1

**Query** Can you check CCCS(=O)(=O)Nc1ccc(F)c(C(=O)Nc2cnc3[nH]nc(OC)c3c2)c1C(F)(F)F next?
**Result** -1

**Query** Same lookup for O=C(Nc1cnc2[nH]ccc2c1)c1c(F)ccc(NS(=O)(=O)N2CCCC2)c1F , please.
**Result** -1

**Query** Thanks! And CCN(C)S(=O)(=O)Nc1ccc(F)c(C(=O)Nc2cnc3[nH]nc(OC)c3c2)c1F ?
**Result** -1

Continuing:
**Query** Is 20 nM strictly greater than the compound's reported IC50? compound: COc1n[nH]c2ncc(NC(=O)c3c(F)ccc(NS(=O)(=O)N(C)C)c3F)cc12
**Result** 1

**Query** # repeat for CCCS(=O)(=O)Nc1ccc(F)c(C(=O)Nc2cnc3[nH]nc(OC)c3c2)c1OC
**Result** -1

###

Target: Serine/threonine-protein kinase B-raf (Homo sapiens, UniProt P15056, V600E)
Assay: Inhibition of full length B-Raf V600E mutant
Exercise: state measured IC50 for each of the compounds provided.
Answers are plain numbers, in nM.

**Query** Quick check: IC50 of CCCS(=O)(=O)Nc1ccc(OC)c(C(=O)Nc2cnc3[nH]nc(OC)c3c2)c1F ?
**Result** 2600

**Query** One more compound: CCCS(=O)(=O)Nc1ccc(F)c(C(=O)Nc2cnc3[nH]cc(I)c3c2)c1F
**Result** 2.2

**Query** // repeat for COc1n[nH]c2ncc(NC(=O)c3c(F)ccc(NS(=O)(=O)Cc4ccccc4)c3F)cc12 and report
**Result** 190

**Query** Proceed to CCCS(=O)(=O)Nc1cc(F)cc(C(=O)Nc2cnc3[nH]ccc3c2)c1F
**Result** 76

**Query** // next record O=C(Nc1cnc2[nH]ccc2c1)c1c(F)ccc(NS(=O)(=O)CC2CC2)c1F
**Result** 29

**Query** Would you mind doing CN(C)S(=O)(=O)Nc1ccc(F)c(C(=O)Nc2cnc3[nH]ccc3c2)c1F as well?
**Result** 200

**Query** Also check CCCS(=O)(=O)Nc1cc(F)cc(C(=O)Nc2cnc3[nH]nc(OC)c3c2)c1F
**Result** 7.5

**Query** Consider next the compound CCCS(=O)(=O)Nc1ccc(F)c(C(=O)Nc2cnc3[nH]ccc3c2)c1 in the same way.
**Result** 210

**Query** Likewise for CCCS(=O)(=O)Nc1ccc(F)c(C(=O)Nc2cnc3[nH]nc(OCC4CCC4)c3c2)c1F ?
**Result** 3.5

**Query** Next compound up: CCCS(=O)(=O)Nc1ccc(F)c(C(=O)Nc2cnc3[nH]nc(I)c3c2)c1F
**Result** 1.8

Give me IC50 for each of these compounds, listed below.
1. CCS(=O)(=O)Nc1ccc(F)c(C(=O)Nc2cnc3[nH]nc(OC)c3c2)c1F
2. CCCS(=O)(=O)Nc1ccc(F)c(C(=O)Nc2cnc3[nH]nc(OC)c3c2)c1
3. COc1n[nH]c2ncc(NC(=O)c3c(F)ccc(NS(=O)(=O)c4ccccn4)c3F)cc12
4. O=C(Nc1cnc2[nH]ccc2c1)c1c(F)ccc(NS(=O)(=O)C2CC2)c1F
5. CCNS(=O)(=O)Nc1ccc(F)c(C(=O)Nc2cnc3[nH]nc(OC)c3c2)c1F
6. O=C(Nc1cnc2[nH]ccc2c1)c1c(F)ccc(NS(=O)(=O)CCCF)c1F
7. CCCS(=O)(=O)Nc1cccc(C(=O)Nc2cnc3[nH]nc(OC)c3c2)c1F
8. COc1n[nH]c2ncc(NC(=O)c3c(F)ccc(NS(=O)(=O)c4ccc(F)cc4)c3F)cc12

**Result**
1: 25; 2: 150; 3: 16; 4: 99; 5: 18; 6: 19; 7: 13; 8: 46

**Query** Record request: IC50 value, item COc1n[nH]c2ncc(NC(=O)c3c(F)ccc(NS(=O)(=O)C4CC4)c3F)cc12
**Result** 63
